This listing pairs molecules with measured concentration at 0.5 h.
- test: Pharmacokinetics of intraperitoneal or intravenous injection in CD1 mice
- Type: in vivo
- condition description: male, CD1, mouse, plasma, iv, 1 mg/kg, IV 1.0 mg/kg, CD1 mice plasma, 0.5 h; read-out: Mean
Respond with the bare value in µg/mL.

Data point: Cc1ncsc1-c1ccc(CNC(=O)[C@@H]2C[C@@H](O)CN2C(=O)[C@@H](NC(=O)COCCOc2ccc(Nc3ncc(C(F)(F)F)c(NCc4cccc(N(C)S(C)(=O)=O)c4)n3)cc2)C(C)(C)C)cc1 [Compound 100] ; concentration at 0.5 h = 0.0208

Data point: Cc1ncsc1-c1ccc(CNC(=O)[C@@H]2C[C@@H](O)CN2C(=O)[C@@H](NC(=O)COCCCOc2ccc(Nc3ncc(C(F)(F)F)c(NCc4cccc(N(C)S(C)(=O)=O)c4)n3)cc2)C(C)(C)C)cc1 [Compound 101] ; concentration at 0.5 h = 0.0257

Data point: Cc1ncsc1-c1ccc(CNC(=O)[C@@H]2C[C@@H](O)CN2C(=O)[C@@H](NC(=O)CCOCCCOc2ccc(Nc3ncc(C(F)(F)F)c(NCc4cccc(N(C)S(C)(=O)=O)c4)n3)cc2)C(C)(C)C)cc1 [Compound 103] ; concentration at 0.5 h = 0.136

Data point: Cc1ncsc1-c1ccc(CNC(=O)[C@@H]2C[C@@H](O)CN2C(=O)[C@@H](NC(=O)CCOCCOc2ccc(Nc3ncc(C(F)(F)F)c(NCc4cccc(N(C)S(C)(=O)=O)c4)n3)cc2)C(C)(C)C)cc1 [Compound 102] ; concentration at 0.5 h = 0.0315

Recorded values, source patent US20200038513A1.
